- test description: Pharmacokinetics in Sprague Dawley rats (plasma and brain concentrations, PK parameters)
- Type: in vivo
- condition label: Sprague Dawley, rat, brain, iv, 3 mg/kg, Rat (Sprague Dawley) iv 3 mg/kg (IVB); brain; 0.25 h; Mean; read-out: brain Actual Conc.
measurement label: concentration at 0.25 h
Reply with the number, then its unit.

GET /values?readout=concentration at 0.25 h&item= O=C1CCC(N2C(=O)c3cccc(NCCOCCOCCNCc4ccc(-n5cc(NC(=O)c6coc(-c7ccnc(NCC8CC8)c7)n6)c(C(F)F)n5)cc4)c3C2=O)C(=O)N1 (stereo not shown) 39.2 ng/g

###

- test description: Pharmacokinetics in Sprague Dawley rats (plasma and brain concentrations, PK parameters)
- Assay type: in vivo
- condition label: Sprague Dawley, rat, plasma, po, 10 mg/kg, Sprague Dawley rat, po 10 mg/kg, plasma, 2 h, mean of 3 rats; read-out: Concentration Mean
measurement label: concentration at 2 h
Reply with the number, then its unit.

GET /values?readout=concentration at 2 h&item= O=C1CCC(N2C(=O)c3cccc(NCCOCCOCCNCc4ccc(-n5cc(NC(=O)c6coc(-c7ccnc(NCC8CC8)c7)n6)c(C(F)F)n5)cc4)c3C2=O)C(=O)N1 (stereo not shown) 1.56 ng/mL
